- system-under-test: SOS1:KRAS (G12C) interaction (Homo sapiens (Human), UniProt Q07889)
- Sequence (Q07889 564-1049, stated change not applied): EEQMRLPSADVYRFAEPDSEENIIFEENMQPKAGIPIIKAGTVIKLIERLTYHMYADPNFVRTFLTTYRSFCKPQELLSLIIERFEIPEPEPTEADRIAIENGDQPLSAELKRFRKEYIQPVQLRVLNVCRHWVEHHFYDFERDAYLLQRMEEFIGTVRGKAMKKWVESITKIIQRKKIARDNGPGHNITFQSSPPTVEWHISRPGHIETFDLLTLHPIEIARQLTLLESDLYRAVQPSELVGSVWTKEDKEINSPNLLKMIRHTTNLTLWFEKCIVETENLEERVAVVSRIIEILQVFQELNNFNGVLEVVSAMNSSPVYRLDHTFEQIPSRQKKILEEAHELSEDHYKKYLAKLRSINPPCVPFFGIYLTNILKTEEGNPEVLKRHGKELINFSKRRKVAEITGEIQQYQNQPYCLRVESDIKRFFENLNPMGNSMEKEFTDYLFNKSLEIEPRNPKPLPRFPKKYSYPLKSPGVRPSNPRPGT
- protocol: SOS1-KRas(G12C) FRET Assay
- test-context: 0.5 nM His10-SOS1 (res. 564-1049), 2.5 nM GST-KRAS (res. 1-169, G12C); read-out: SOS-KRas(G12C) FRET IC50
observation-type: pIC50
Units for pIC50: none; it is -log10 of a concentration expressed in mol/L.

# count of solved cases: 4
CC(=O)c1c(=O)n(C2CC2)cc2c(N[C@H](C)c3cccc(C(F)(F)F)c3C)nn(C)c(=O)c12 [Example 48]
6.72
C[C@@H](Nc1nn(C)c(=O)c2cc(=O)n([C@@H]3CCOC(C)(C)C3)cc12)c1cccc(C(F)F)c1F (single isomer, unassigned) [Example 84]
6.64
Cc1c([C@@H](C)Nc2nn(CCO)c(=O)c3cc(=O)n(C4CC4)cc23)cccc1C(F)(F)F [Example 77]
6.52
Cc1c([C@@H](C)Nc2nn(C)c(=O)c3cc(=O)n(C4CC4)cc23)cccc1C(F)(F)F [Example 2]
6.48

Okay, next one:
According to the records, this molecule CC(=O)N1CC[C@](n2cc3c(N[C@H](C)c4cccc5c(F)coc45)nn(C)c(=O)c3cc2=O)(C(F)(F)F)C1 (single isomer, unassigned) [Example 173] displays pIC50 of 5.55
